# SYSTEM_TESTED: central benzodiazepine receptors
# PROTOCOL_TEXT: Affinity to central benzodiazepine receptors: inhibition of binding of tritiated flumazenil in rat cortex
# ASSAY_CONTEXT: in vitro
Rule: measured IC50 below 4 nM gets met; anything equal to or greater than 4 nM gets not met.

// below: answered compounds
CCCN(CCC)Cc1nc(-c2ncn3c2[C@@H]2CCN2C(=O)c2c(Cl)cccc2-3)no1 [A]	not met
CCCN(CCC)Cc1nc(-c2ncn3c2CN(C)C(=O)c2c(F)cccc2-3)no1 [J]	met
CC(C)N(Cc1nc(-c2ncn3c2CN(C)C(=O)c2ccccc2-3)no1)C(C)C [O]	not met
CCCN(CCC)Cc1nnc(-c2ncn3c2CN(C)C(=O)c2cc(F)ccc2-3)o1 [G]	not met
CCN(CC)Cc1nc(-c2ncn3c2CN(C)C(=O)c2c(Cl)cccc2-3)no1 [K]	met
O=C1c2c(Cl)cccc2-n2cnc(-c3noc(CN4CCCCC4)n3)c2[C@@H]2CCN12 [I]	not met
CCCN(CCC)Cc1nc(-c2ncn3c2[C@@H]2CCN2C(=O)c2sccc2-3)no1 [B]	not met
CCCN(CCC)Cc1nc(-c2ncn3c2CN(C)C(=O)c2cc(F)ccc2-3)no1 [D]	met

Decide: IC50 of CCN(CC)Cc1nc(-c2ncn3c2CN(C)C(=O)c2cc(F)ccc2-3)no1 [H] strictly below 4 nM?
not met

Decide: IC50 of CCCN(CCC)Cc1nc(-c2ncn3c2CN(C)C(=O)c2ccccc2-3)no1 [F] strictly below 4 nM?
not met

Decide: IC50 of CCCN(CCC)Cc1nnc(-c2ncn3c2CN(C)C(=O)c2c(Cl)cccc2-3)o1 [L] strictly below 4 nM?
not met
